- SYSTEM_TESTED: Poly [ADP-ribose] polymerase 1 (Homo sapiens)
- Sequence (P09874 whole entry): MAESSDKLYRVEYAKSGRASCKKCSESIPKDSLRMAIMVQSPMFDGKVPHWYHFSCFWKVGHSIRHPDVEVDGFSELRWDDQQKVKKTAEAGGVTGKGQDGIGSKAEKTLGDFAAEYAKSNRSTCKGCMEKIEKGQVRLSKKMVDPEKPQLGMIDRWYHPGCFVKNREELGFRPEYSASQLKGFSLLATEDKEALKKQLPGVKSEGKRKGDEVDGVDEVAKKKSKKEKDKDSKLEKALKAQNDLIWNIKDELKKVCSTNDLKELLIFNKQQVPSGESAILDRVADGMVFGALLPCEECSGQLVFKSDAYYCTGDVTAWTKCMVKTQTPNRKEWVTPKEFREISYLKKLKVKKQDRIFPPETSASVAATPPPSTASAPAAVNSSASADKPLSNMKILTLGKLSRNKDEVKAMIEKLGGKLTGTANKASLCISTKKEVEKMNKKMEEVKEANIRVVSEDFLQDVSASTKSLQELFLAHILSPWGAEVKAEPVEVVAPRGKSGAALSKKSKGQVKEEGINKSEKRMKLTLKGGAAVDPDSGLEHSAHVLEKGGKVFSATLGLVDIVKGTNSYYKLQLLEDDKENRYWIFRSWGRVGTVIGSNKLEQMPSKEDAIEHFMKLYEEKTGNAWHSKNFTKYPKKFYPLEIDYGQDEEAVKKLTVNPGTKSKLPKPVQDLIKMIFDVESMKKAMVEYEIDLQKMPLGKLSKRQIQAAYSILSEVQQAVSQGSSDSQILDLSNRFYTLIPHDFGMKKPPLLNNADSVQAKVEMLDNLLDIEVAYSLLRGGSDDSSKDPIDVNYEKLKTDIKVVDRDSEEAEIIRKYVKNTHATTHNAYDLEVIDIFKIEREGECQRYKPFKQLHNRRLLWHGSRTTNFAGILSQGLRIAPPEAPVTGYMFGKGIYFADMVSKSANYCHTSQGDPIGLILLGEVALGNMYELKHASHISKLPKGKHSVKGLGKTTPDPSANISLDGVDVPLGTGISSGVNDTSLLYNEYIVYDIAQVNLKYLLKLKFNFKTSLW
- METHOD_SUMMARY: Inhibition of PARP-1 derived from human HeLa cell nucleus
- Format: subcellular
Catalogue of molecules with associated pIC50
FYI, pIC50 means -log10 of a concentration in mol per litre.

Worked cases, pIC50 given:
{"LINE_NOTATION": "NC(=O)c1cccc2[nH]c(-c3ccc(OCCCCCCCC(=O)NO)cc3)nc12", "READOUT_NUMBER": 7.32}
{"LINE_NOTATION": "NC(=O)c1cccc2[nH]c(-c3ccc(OCCCCCC(=O)NO)cc3)nc12", "READOUT_NUMBER": 7.69}
{"LINE_NOTATION": "NC(=O)c1cccc2cn(-c3ccc(OCCCCC(=O)NO)cc3)nc12", "READOUT_NUMBER": 6.99}

Then there is this molecule:
For this molecule ( NC(=O)c1cccc2[nH]c(-c3ccc(OCCCCCCC(=O)NO)cc3)nc12 ), measured pIC50 is 7.42
